From: patent US20200231614A1

test system: PSMA + PC-3 PiP and PSMA − PC-3 flu tumor xenografts; conditions: 2 H post-injection
Measured property: Biodistribution: heart (% ID/g)
Respond numerically; units are % ID/g and should not be typed.

Answered examples (2):
{"Molecule": "N=C(N)NCc1ccc(C(=O)NCCCC[C@H](NC(=O)N[C@@H](CCC(=O)O)C(=O)O)C(=O)O)cc1[131I] [[^131I] labeled 7 (PSMA-620)]", "Observed value": 0.89}
{"Molecule": "N=C(N)NCc1ccc(C(=O)NCCCCC(NC(=O)CCCCCCC(=O)NCCCC[C@H](NC(=O)N[C@@H](CCC(=O)O)C(=O)O)C(=O)O)C(=O)O)cc1[211At] (stereo partly drawn) [[^211At] labeled PSMA-904]", "Observed value": 0.76}

Would you kindly look at the next entry?
Checklist item: Biodistribution: heart tested on PSMA + PC-3 PiP and PSMA − PC-3 flu tumor xenografts, entry N=C(N)NCc1ccc(C(=O)NCCCCC(NC(=O)CCCCCCC(=O)NCCCC[C@H](NC(=O)N[C@@H](CCC(=O)O)C(=O)O)C(=O)O)C(=O)O)cc1[131I] (stereo partly drawn) [[^131I] labeled PSMA-904] , value?
0.27

----------
Biodistribution: Sm int. values by entry
system: PSMA + PC-3 PiP and PSMA − PC-3 flu tumor xenografts; settings: 1 H post-injection
Respond numerically; units are % ID/g and should not be typed.

{"Molecule": "N=C(N)NCc1ccc(C(=O)NCCCCC(NC(=O)CCCCCCC(=O)NCCCC[C@H](NC(=O)N[C@@H](CCC(=O)O)C(=O)O)C(=O)O)C(=O)O)cc1[131I] (some centres unmarked) [[^131I] labeled PSMA-904]", "Measured property": "Biodistribution: Sm int.", "Unit spec": "% ID/g", "Observed value": 33.81}

Any idea what its Biodistribution: Sm int. is? The molecule is O=C(O)CC[C@H](NC(=O)N[C@@H](CCC(=O)NCCc1ccc([131I])cc1)C(=O)O)C(=O)O [[^131I]HS-549]
1.98

Any idea what its Biodistribution: Sm int. is? The molecule is O=C(O)CC[C@H](NC(=O)NC(CCCCNC(=O)c1ccc([211At])cc1)C(=O)O)C(=O)O (some centres unmarked) [[^211At]YC-I-27]
3.67

Any idea what its Biodistribution: Sm int. is? The molecule is N=C(N)NCc1ccc(C(=O)NCCCCC(NC(=O)CCCCCCC(=O)NCCCC[C@H](NC(=O)N[C@@H](CCC(=O)O)C(=O)O)C(=O)O)C(=O)O)cc1[211At] (some centres unmarked) [[^211At] labeled PSMA-904]
33.9

Any idea what its Biodistribution: Sm int. is? The molecule is N=C(N)NCc1ccc(C(=O)NCCCC[C@H](NC(=O)N[C@@H](CCC(=O)O)C(=O)O)C(=O)O)cc1[131I] [[^131I] labeled 7 (PSMA-620)]
3.14

Any idea what its Biodistribution: Sm int. is? The molecule is O=C(O)CC[C@H](NC(=O)N[C@@H](CCC(=O)NCCc1ccc([211At])cc1)C(=O)O)C(=O)O [[^211At]HS-549]
5.52

Any idea what its Biodistribution: Sm int. is? The molecule is O=C(O)CC[C@H](NC(=O)N[C@@H](CSCc1ccc([125I])cc1)C(=O)O)C(=O)O [[^125I] labeled DCIBC]
1.2

Any idea what its Biodistribution: Sm int. is? The molecule is O=C(O)CC[C@H](NC(=O)N[C@@H](CCCCNC(=O)c1ccc([131I])cc1)C(=O)O)C(=O)O [[^131I]YC-I-27]
1.83

----------
test system: PSMA + PC-3 PiP and PSMA − PC-3 flu tumor xenografts; settings: 21 H post-injection
Biodistribution: blood values by entry
Respond numerically; units are % ID/g and should not be typed.

Answered examples (2):
{"Molecule": "N=C(N)NCc1ccc(C(=O)NCCCCC(NC(=O)CCCCCCC(=O)NCCCC[C@H](NC(=O)N[C@@H](CCC(=O)O)C(=O)O)C(=O)O)C(=O)O)cc1[131I] (stereo partly drawn) [[^131I] labeled PSMA-904]", "Observed value": 0.02}
{"Molecule": "O=C(O)CC[C@H](NC(=O)N[C@@H](CCC(=O)NCCc1ccc([131I])cc1)C(=O)O)C(=O)O [[^131I]HS-549]", "Observed value": 1.39}

Would you kindly look at the next entry?
Checklist item: Biodistribution: blood tested on PSMA + PC-3 PiP and PSMA − PC-3 flu tumor xenografts, entry N=C(N)NCc1ccc(C(=O)NCCCCC(NC(=O)CCCCCCC(=O)NCCCC[C@H](NC(=O)N[C@@H](CCC(=O)O)C(=O)O)C(=O)O)C(=O)O)cc1[211At] (stereo partly drawn) [[^211At] labeled PSMA-904] , value?
0.48

----------
system: PSMA + PC-3 PiP and PSMA − PC-3 flu tumor xenografts; conditions: 21 H post-injection
Measured property: Biodistribution: bladder (% ID/g)
Respond numerically; units are % ID/g and should not be typed.

{"Compound": "O=C(O)CC[C@H](NC(=O)N[C@@H](CCC(=O)NCCc1ccc([211At])cc1)C(=O)O)C(=O)O [[^211At]HS-549]", "Tested on": "PSMA + PC-3 PiP and PSMA − PC-3 flu tumor xenografts", "Observed value": 2.78}
{"Compound": "N=C(N)NCc1ccc(C(=O)NCCCC[C@H](NC(=O)N[C@@H](CCC(=O)O)C(=O)O)C(=O)O)cc1[131I] [[^131I] labeled 7 (PSMA-620)]", "Tested on": "PSMA + PC-3 PiP and PSMA − PC-3 flu tumor xenografts", "Observed value": 0.56}
{"Compound": "N=C(N)NCc1ccc(C(=O)NCCCCC(NC(=O)CCCCCCC(=O)NCCCC[C@H](NC(=O)N[C@@H](CCC(=O)O)C(=O)O)C(=O)O)C(=O)O)cc1[131I] (stereo partly drawn) [[^131I] labeled PSMA-904]", "Tested on": "PSMA + PC-3 PiP and PSMA − PC-3 flu tumor xenografts", "Observed value": 0.07}

Checklist item: Biodistribution: bladder tested on PSMA + PC-3 PiP and PSMA − PC-3 flu tumor xenografts, entry O=C(O)CC[C@H](NC(=O)N[C@@H](CCCCNC(=O)c1ccc([131I])cc1)C(=O)O)C(=O)O [[^131I]YC-I-27] , value?
0.48

Checklist item: Biodistribution: bladder tested on PSMA + PC-3 PiP and PSMA − PC-3 flu tumor xenografts, entry N=C(N)NCc1ccc(C(=O)NCCCCC(NC(=O)CCCCCCC(=O)NCCCC[C@H](NC(=O)N[C@@H](CCC(=O)O)C(=O)O)C(=O)O)C(=O)O)cc1[211At] (stereo partly drawn) [[^211At] labeled PSMA-904] , value?
1.99

Checklist item: Biodistribution: bladder tested on PSMA + PC-3 PiP and PSMA − PC-3 flu tumor xenografts, entry O=C(O)CC[C@H](NC(=O)N[C@@H](CCC(=O)NCCc1ccc([131I])cc1)C(=O)O)C(=O)O [[^131I]HS-549] , value?
0.65

----------
tested on: PSMA + PC-3 PiP and PSMA − PC-3 flu tumor xenografts; details: 2 H post-injection
Biodistribution: spleen values by entry
Respond numerically; units are % ID/g and should not be typed.

Answered examples (3):
{"Compound": "N=C(N)NCc1ccc(C(=O)NCCCCC(NC(=O)CCCCCCC(=O)NCCCC[C@H](NC(=O)N[C@@H](CCC(=O)O)C(=O)O)C(=O)O)C(=O)O)cc1[211At] (some centres unmarked) [[^211At] labeled PSMA-904]", "Tested on": "PSMA + PC-3 PiP and PSMA − PC-3 flu tumor xenografts", "Unit spec": "% ID/g", "Observed value": 4.31}
{"Compound": "O=C(O)CC[C@H](NC(=O)NC(CCCCNC(=O)c1ccc([211At])cc1)C(=O)O)C(=O)O (some centres unmarked) [[^211At]YC-I-27]", "Tested on": "PSMA + PC-3 PiP and PSMA − PC-3 flu tumor xenografts", "Unit spec": "% ID/g", "Observed value": 20.3}
{"Compound": "O=C(O)CC[C@H](NC(=O)N[C@@H](CCC(=O)NCCc1ccc([211At])cc1)C(=O)O)C(=O)O [[^211At]HS-549]", "Tested on": "PSMA + PC-3 PiP and PSMA − PC-3 flu tumor xenografts", "Unit spec": "% ID/g", "Observed value": 6.13}

Checklist item: Biodistribution: spleen tested on PSMA + PC-3 PiP and PSMA − PC-3 flu tumor xenografts, entry O=C(O)CC[C@H](NC(=O)N[C@@H](CSCc1ccc([125I])cc1)C(=O)O)C(=O)O [[^125I] labeled DCIBC] , value?
3.2

Checklist item: Biodistribution: spleen tested on PSMA + PC-3 PiP and PSMA − PC-3 flu tumor xenografts, entry N=C(N)NCc1ccc(C(=O)NCCCC[C@H](NC(=O)N[C@@H](CCC(=O)O)C(=O)O)C(=O)O)cc1[131I] [[^131I] labeled 7 (PSMA-620)] , value?
6.81

Checklist item: Biodistribution: spleen tested on PSMA + PC-3 PiP and PSMA − PC-3 flu tumor xenografts, entry N=C(N)NCc1ccc(C(=O)NCCCCC(NC(=O)CCCCCCC(=O)NCCCC[C@H](NC(=O)N[C@@H](CCC(=O)O)C(=O)O)C(=O)O)C(=O)O)cc1[131I] (some centres unmarked) [[^131I] labeled PSMA-904] , value?
3.41

Checklist item: Biodistribution: spleen tested on PSMA + PC-3 PiP and PSMA − PC-3 flu tumor xenografts, entry O=C(O)CC[C@H](NC(=O)N[C@@H](CCC(=O)NCCc1ccc([131I])cc1)C(=O)O)C(=O)O [[^131I]HS-549] , value?
2.71

Checklist item: Biodistribution: spleen tested on PSMA + PC-3 PiP and PSMA − PC-3 flu tumor xenografts, entry O=C(O)CC[C@H](NC(=O)N[C@@H](CCCCNC(=O)c1ccc([131I])cc1)C(=O)O)C(=O)O [[^131I]YC-I-27] , value?
26.25
